B1: TRIM35 (parent)
chain: WEVQVSPTCPVCKDRASPADLRTN

Variants of: B1
test: protein stability index of a GFP-peptide fusion (GPS, HEK-293T) (PSI 1-6); higher = more stable;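 further: lentivirally expressed fusions sorted by FACS into six bins by GFP to DsRed ratio, PSI derived from sequencing read proportions per bin multiplied by bin number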
condition.set: c terminus: a fixed tail appended
I'd be grateful if you could share measured protein stability index for these entries.
Numbers only.

Solved entries:
mutant_code=D14E endpoint_result=2.75
mutant_code=V11S endpoint_result=1.79
mutant_code=T8R endpoint_result=1.7
mutant_code=R15Q endpoint_result=2.54

I need protein stability index for every entry listed below, if you could help.
1. T23I
2. P10K
3. C12I
4. P10W
5. A19F
6. W1M
7. C9N
8. K13M

Response given:
1. 2.18
2. 2.79
3. 3.4
4. 2.51
5. 2.99
6. 2.75
7. 4.34
8. 1.94
